target: M1 muscarinic receptor (Homo sapiens); construct: membranes; test: [3H]NMS competition binding, membranes from CHO cells expressing M1; settings: competition with [3H]NMS, mean ± SD, three experiments, read-out: Binding affinity, negative logarithm of Ki (converted)
Sequence (P11229 whole entry): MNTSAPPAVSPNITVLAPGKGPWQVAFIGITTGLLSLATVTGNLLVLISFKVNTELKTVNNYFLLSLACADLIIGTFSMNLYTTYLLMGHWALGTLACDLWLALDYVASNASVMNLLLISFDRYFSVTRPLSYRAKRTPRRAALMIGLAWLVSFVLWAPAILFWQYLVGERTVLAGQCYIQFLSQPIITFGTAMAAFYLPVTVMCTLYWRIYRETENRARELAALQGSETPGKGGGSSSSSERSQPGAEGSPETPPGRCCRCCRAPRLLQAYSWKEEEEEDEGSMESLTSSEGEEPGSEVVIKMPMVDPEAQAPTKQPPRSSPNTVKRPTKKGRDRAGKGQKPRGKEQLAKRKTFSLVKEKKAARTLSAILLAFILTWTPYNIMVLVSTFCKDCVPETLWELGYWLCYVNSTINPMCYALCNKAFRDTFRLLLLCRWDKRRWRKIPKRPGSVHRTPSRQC
A collection of compounds and their measured Ki
Return type: number; implicit unit µM.

Examples with their reported Ki follow.
1. C[N+]1(Cc2cccs2)CCOCC1; 85.1
2. c1csc(C[N+]23CCC(CC2)CC3)c1; 6.92
3. COC(=O)C1=CCCN(Cc2cccs2)C1; 115

Could you now look at the following compound, please?
For the compound COC(=O)C1=CCC[N+](C)(Cc2cccs2)C1 (centres unmarked) , give its measured Ki value.
42.7

====

Molecular target: M2 muscarinic receptor (Homo sapiens, UniProt P08172)
Construct: membranes
Sequence (P08172 1-466): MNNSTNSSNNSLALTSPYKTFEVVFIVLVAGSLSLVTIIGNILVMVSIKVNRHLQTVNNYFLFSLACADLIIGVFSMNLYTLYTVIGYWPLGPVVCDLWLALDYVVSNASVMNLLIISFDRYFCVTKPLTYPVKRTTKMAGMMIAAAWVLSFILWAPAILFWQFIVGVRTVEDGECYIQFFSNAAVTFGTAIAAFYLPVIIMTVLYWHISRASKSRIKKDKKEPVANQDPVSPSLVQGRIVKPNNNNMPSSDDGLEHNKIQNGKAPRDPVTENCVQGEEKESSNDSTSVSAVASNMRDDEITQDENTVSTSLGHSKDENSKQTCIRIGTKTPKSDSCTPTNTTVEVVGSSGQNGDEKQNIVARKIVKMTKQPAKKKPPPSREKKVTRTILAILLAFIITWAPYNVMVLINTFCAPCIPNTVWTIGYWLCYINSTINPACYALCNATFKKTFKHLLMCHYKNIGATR
Experiment: [3H]NMS competition binding, membranes from CHO cells expressing M2
Assay Endpoint: pKi
Keep in mind that pKi stands for -log10 of concentration in molar terms.

1. C[N+]1(Cc2cccs2)CCOCC1; 4.76
2. c1csc(C[N+]23CCC(CC2)CC3)c1; 5.49

Below: the item to evaluate.
Determine from records and report pKi for COC(=O)C1=CCC[N+](C)(Cc2cccs2)C1 (stereo not drawn)
5.02

====

target: M5 muscarinic receptor (Homo sapiens); construct: membranes; test: [3H]NMS competition binding, membranes from CHO cells expressing M5
Sequence (P08912 whole entry): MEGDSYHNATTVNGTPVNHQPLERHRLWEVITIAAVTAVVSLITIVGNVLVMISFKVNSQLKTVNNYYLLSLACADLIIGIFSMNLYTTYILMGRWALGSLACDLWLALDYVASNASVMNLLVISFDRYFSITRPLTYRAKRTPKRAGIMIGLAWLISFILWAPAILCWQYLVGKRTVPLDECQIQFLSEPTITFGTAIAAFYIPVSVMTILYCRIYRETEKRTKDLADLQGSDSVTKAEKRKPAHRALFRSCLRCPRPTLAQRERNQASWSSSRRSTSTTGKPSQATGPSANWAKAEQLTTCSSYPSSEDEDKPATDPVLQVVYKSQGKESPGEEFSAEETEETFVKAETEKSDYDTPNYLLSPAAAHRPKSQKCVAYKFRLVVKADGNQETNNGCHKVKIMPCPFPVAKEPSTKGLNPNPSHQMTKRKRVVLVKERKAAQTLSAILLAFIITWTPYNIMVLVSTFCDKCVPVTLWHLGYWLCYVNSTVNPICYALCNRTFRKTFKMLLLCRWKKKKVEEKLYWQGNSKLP
Ki values by entry
Please don't drop the unit; write it after the number.

A selection of reference data follows.
1) COC(=O)C1=CCC[N+](C)(Cc2cccs2)C1 (stereo not drawn); 97.7 µM
2) c1csc(C[N+]23CCC(CC2)CC3)c1; 9.33 µM

Give Ki for the following molecule: C[N+]1(Cc2cccs2)CCOCC1
112 µM
